# Tested system: recombinant human mu (MOR) opioid receptor (Homo sapiens, UniProt P35372)
# Construct: expressed in transfected cells; host or cells: CHO-K1 cells (membranes)
# Sequence (P35372 whole entry): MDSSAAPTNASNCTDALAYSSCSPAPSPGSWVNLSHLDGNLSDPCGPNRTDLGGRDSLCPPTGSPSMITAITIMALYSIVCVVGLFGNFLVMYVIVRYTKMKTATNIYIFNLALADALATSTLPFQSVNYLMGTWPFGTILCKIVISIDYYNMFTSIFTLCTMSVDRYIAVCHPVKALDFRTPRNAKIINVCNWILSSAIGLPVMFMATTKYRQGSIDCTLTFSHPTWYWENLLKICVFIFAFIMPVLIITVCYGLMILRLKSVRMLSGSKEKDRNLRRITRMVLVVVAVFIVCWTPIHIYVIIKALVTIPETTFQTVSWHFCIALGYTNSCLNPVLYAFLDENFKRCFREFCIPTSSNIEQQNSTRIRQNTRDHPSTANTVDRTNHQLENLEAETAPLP
# Experiment description: Competitive radioligand binding at MOR ([3H]naloxone), single concentration, CHO-K1 membranes
# Test settings: 10 μM test compound; percent inhibition of specific [3H]naloxone (4 nM) binding; read-out: Mu Opioid Receptor Mu Receptor Inhibition % inhib @ 10 uM
Assay metric: inhibition at 10 µM
Field note: include the unit after the figure.

Please review the following examples before continuing.
>>> test_result("CN(C(=O)Cc1nccs1)[C@H](CN1CC[C@H](O)C1)c1ccc(OCCO)cc1")
"-3.2%"
>>> test_result("Cc1ccc(CC(=O)N(C)[C@H](CN2CC[C@H](O)C2)c2ccc(OCCO)cc2)cn1")
"28.4%"
>>> test_result("CC(O)CS(=O)(=O)Nc1cccc([C@@H](CN2CCCC2)N(C)C(=O)Cc2ccc(C(F)(F)F)cc2)c1 (stereo partly shown)")
"95.4%"

Now take the following molecule into account.
Note down inhibition at 10 µM recorded for `Cc1noc(C)c1S(=O)(=O)Nc1cccc([C@@H](CN2CCCC2)N(C)C(=O)Cc2ccc(Cl)c(Cl)c2)c1`
84.6%
